subject-of-test: nsp7 (Severe acute respiratory syndrome coronavirus 2)

record-smiles	Kd
CC1(C)[C@@H](O)CC[C@]2(C)[C@H]3C(=O)C=C4[C@@H]5C[C@@](C)(C(=O)O)CC[C@]5(C)CC[C@@]4(C)[C@]3(C)CC[C@@H]12	384 µM

====

measurement-description: in vivo
Set-up: species or system rats
test-parameters: male, Sprague-Dawley, rat, po, 40 mg/kg
assay-metric: half-life

record-smiles	result-value
CC1(C)[C@@H](O)CC[C@]2(C)[C@H]3C(=O)C=C4[C@@H]5C[C@@](C)(C(=O)O)CC[C@]5(C)CC[C@@]4(C)[C@]3(C)CC[C@@H]12	18.2 h

====

As an illustration, consider measured pIC50 for compounds on UniProtKB P0DTC2.
pIC50: −log10 of the molar value.
assay-metric: pIC50

compound	result-value
CC1(C)[C@@H](O)CC[C@]2(C)[C@H]3C(=O)C=C4[C@@H]5C[C@@](C)(C(=O)O)CC[C@]5(C)CC[C@@]4(C)[C@]3(C)CC[C@@H]12 [GA, glycyrrhetinic acid]	4.96
C[C@H]1[C@H](C)CC[C@]2(C(=O)O)CC[C@]3(C)C(=CC[C@@H]4[C@@]5(C)CC[C@H](O)C(C)(C)[C@@H]5CC[C@]43C)[C@H]12 [ursolic acid]	5.05
C=C(C)[C@@H]1CC[C@]2(C(=O)O)CC[C@]3(C)[C@H](CC[C@@H]4[C@@]5(C)CC[C@H](O)C(C)(C)[C@@H]5CC[C@]43C)[C@@H]12 [betulinic acid]	4.82
